assay: gradient 5% acetonitrile 3 min, to 50% in 2 min, to 85% in 15 min, held 3 min, 100 µL/min; conditions: column: Zorbax Extend-C18 2.1 x 50 mm; eluents: water / acetonitrile, 0.1% formic acid
Endpoint label: RP-LC retention time (s)

> print(dat)
                                    molecule  value
 1  COc1nccnc1N1CCC(NC(=O)c2ccsc2)C1 (centres undefined)    645
 2  O=C(NCC1CCCO1)NC1CC(=O)N(c2ccc(Cl)cc2)C1 (centres undefined)    634
 3      CCOC(=O)c1c(C)oc2ncnc(NCc3ccccn3)c12    671
 4  CCCc1nc(C(C)(C)O)c(C(=O)O)n1Cc1ccc(-c2ccccc2-c2nn[nH]n2)cc1    687
 5  NC(=O)C1CCN(c2cc(-c3nc(-c4ccccc4)no3)c3ccccc3n2)CC1    765
 6  Cc1nc(-c2cn(C(C)C)c3ncccc23)sc1C(=O)NCc1cccnc1    657
 7  COc1ccc2cc(-c3nc(-c4ccc(S(C)=O)cc4)[nH]c3-c3ccncc3)ccc2c1 (centres undefined)    682
 8  COc1cc(C2C(C(=O)N3CCCCC3)=C(C)NC3=C2C(=O)CCC3)ccc1OC(C)=O (centres undefined)    647
 9     COCCNC(=O)C1CCN(c2nccnc2Sc2ccccc2)CC1    764
10  CC1CN(c2ccc(Br)cc2)c2nc3c(c(=O)n(CCCO)c(=O)n3C)n2C1 (centres undefined)    833
11  Cn1c(=O)c2cc(C(=O)NCc3cccnc3)nn2c2ccccc21    599
12  CCC(=O)Nc1ccc(-n2cnc(C(=O)N3CCN(c4ccc(OC)cc4)CC3)c2)nc1    653
13  Cc1cc(C)n(CCC(=O)N2CCC(n3c(C)cnc3C)C2)n1 (centres undefined)    563
14  Cc1cc(=O)n(CC(=O)Nc2cccc(Br)c2)c(N2CCOCC2)n1    705
15  O=C(Nc1ccc(C(F)(F)F)cc1)c1cnc(-c2ccc(F)cc2)nc1-c1ccncc1   1070
16  COc1ccc(-c2ncc3c(n2)CCN(C(=O)c2cc(F)ccc2Cl)C3)cc1    966
17  Cc1ccc(Cl)cc1N1C(=O)CN(S(C)(=O)=O)CC1(C)C(=O)NC1CCCCCC1 (centres undefined)    942
18  Cc1ccc(CN2CCN(C3CCN(S(=O)(=O)c4cc(F)ccc4C)CC3)C(=O)C2=O)cc1    920
19  CCn1c(C(=O)NCCC(C)C)cc2c(=O)oc3ccccc3c21    751

###

assay: gradient 5% acetonitrile 3 min, to 50% in 2 min, to 85% in 15 min, held 3 min, 100 µL/min; details: column: Zorbax Extend-C18 2.1 x 50 mm; eluents: water / acetonitrile, 0.1% formic acid
For each record, check the reported RP-LC retention time: if it is below 800 s write y, else write n.

> print(dat)
                                    compound  cat
 1  CN(C)C[C@@H]1CN(c2ncccn2)C[C@H]1NC(=O)c1ccc2ncccc2c1    y
 2  CN1CCN(C(=O)C2CCN(S(=O)(=O)c3ccc(-c4noc(C5CC5)n4)cc3)CC2)CC1    y
 3  COc1ccc(-n2c(=O)c(C(=O)NCC(C)C)c(O)c3cccnc32)cc1    n
 4  CCN1CCCn2cc(S(=O)(=O)Nc3cc(C)ccc3C)cc2C1=O    y
 5  CCOc1ccccc1CNC(=O)C1CCCN(c2nccnc2Sc2ccc(C)cc2)C1 (stereo not given)    n
 6  COc1ccc(CC(C)(O)CNC(=O)c2cc(C)oc2C)cc1 (stereo not given)    y
 7  CCCNC(=O)C1CCCN(c2ccc(SCC(=O)Nc3ccc(F)cc3)nn2)C1 (stereo not given)    y
 8  Cc1cccc(C(=O)NC2CCN(c3cc(-c4cccs4)[nH]n3)C2)c1 (stereo not given)    y
 9        c1ccc(Cn2cnnc2C2CCN(CC3CC3)CC2)cc1    y
10  c1ccc(-c2n[nH]c(C3CCCN3)n2)cc1 (stereo not given)    y
11  COc1ccc2c(c1)C1CC(C)(NC(=O)C1S(=O)(=O)c1ccc(C)cc1)O2 (stereo not given)    n
12  CCCS(=O)(=O)N1CCC2(CC1)C(OC)CN2c1cccc(F)c1 (stereo not given)    n
13  Cc1oc(-c2[nH]ncc2C(=O)N(C)C)cc1S(=O)(=O)NCc1cccnc1    y
14  CCCOc1nc2ccccc2nc1N1CCCC(C(=O)Nc2ccc(OC)cc2OC)C1 (stereo not given)    n
15  COc1ccc(Cl)cc1NS(=O)(=O)c1c[nH]c2ncccc12    y
16  Cc1ccc(NC(=O)Cn2nc(N3CCCCCC3)c3ccccc3c2=O)c(F)c1    n
17  Cc1cc(NCCCC(=O)NC2CC2)n2nc(-c3cccnc3)nc2n1    y
18  CCN1C(=O)c2cccnc2Sc2cc(NC(=O)c3ccc(OC)nc3)ccc21    y
19  CCCCn1c(=O)c2ccccc2n(Cc2nc(-c3ccc(C(F)(F)F)cc3)no2)c1=O    n
20  O=C(NCC1CCCO1)c1ccccc1NC(=O)C1CCN(C(=O)c2ccc(F)cc2)CC1 (stereo not given)    y

###

test: gradient 5% acetonitrile 3 min, to 50% in 2 min, to 85% in 15 min, held 3 min, 100 µL/min; details: column: Zorbax Extend-C18 2.1 x 50 mm; eluents: water / acetonitrile, 0.1% formic acid
Reported values of RP-LC retention time for individual entries

Molecule	RP-LC retention time / s
CCc1ccccc1NC(=O)N1CCCC(C)(C(=O)NCc2ccc(F)cc2)C1 (centres undefined)	864
CNC(=O)Nc1ccc(C2(C(=O)Nc3cc(C)cc(C)c3)CCC2)cc1	822
CCCCC(=O)Nc1ccc2nc(N3CCN(c4cccc(C)c4)CC3)cc(C(=O)O)c2c1	722
Cc1[nH]nc(-c2ccc(S(=O)(=O)N3CCOCC3)o2)c1C	707
C=C(C)[C@H]1O[C@H]2CC[C@@]3(C)[C@@](O)(CC[C@H]4[C@@H]5OC(C)(C)[C@H]6C[C@@H]7C(=C)Cc8c(Cl)cc9[nH]c(c5c9c8[C@@]76O)[C@@]43C)[C@]23O[C@@H]3[C@H]1O	1180
COc1cccc(CN2CCC3(CC2)C(OC)C(=O)N3c2cccc(F)c2)n1 (centres undefined)	703
CCc1ccc(N2C(=O)CC(N3CCC(C(N)=O)CC3)C2=O)cc1 (centres undefined)	593
CCOc1ccc(NC(=O)C2(CC)CCCCC(=O)N2)cc1 (centres undefined)	720
CCCn1cc(S(=O)(=O)Nc2cccc(F)c2C)c2cccnc21	861
CCCCn1c(=O)c2ccccc2n(Cc2nc(-c3ccc(OC(F)(F)F)cc3)no2)c1=O	1280
O=C(c1ccco1)N1CCC(Cc2nnc(-c3ccccc3)o2)CC1	749
COc1ccc(-n2nc3c(N4CCCC(C(=O)NCCc5cccs5)C4)nnc(C)c3c2C)cc1 (centres undefined)	722
O=C(NCc1cccs1)C1CCCN(S(=O)(=O)c2c[nH]c(C(=O)N3CCCC3)c2)C1 (centres undefined)	734
CCN(CC)C(=O)N1CCC2(CC1)C(OC)C(=O)N2c1cccc(F)c1 (centres undefined)	937
CC(C)n1cnc(S(=O)(=O)N2CCC(C(=O)Nc3ccc(Br)cc3F)CC2)c1	834
CCCn1cc(S(=O)(=O)Nc2cccc(CC)c2)c2cccnc21	943
CC1=C(c2ccc(F)cc2)S(=O)(=O)N=C1N1CCCN(C(=O)NC(C)C)CC1	746
CCOc1ccccc1CNC(=O)C1CCCN(c2ccc(=O)n(-c3cccc(Cl)c3)n2)C1 (centres undefined)	968
Cc1cc(N(C)C)nc(NCCNC(=O)C2CCCC2)n1	545

###

assay: gradient 5% acetonitrile 3 min, to 50% in 2 min, to 85% in 15 min, held 3 min, 100 µL/min; conditions: column: Zorbax Extend-C18 2.1 x 50 mm; eluents: water / acetonitrile, 0.1% formic acid
Endpoint label: RP-LC retention time (s)

> print(dat)
                                    molecule        endpoint.label  value
 1  Cc1ccccc1NS(=O)(=O)c1cc(-c2cc(C(F)(F)F)on2)sc1C  RP-LC retention time   1180
 2  COc1ccc(CNC(=O)N2C[C@@H]3C[C@H]2C[C@@H]3NS(=O)(=O)c2ccccc2)cc1  RP-LC retention time    764
 3     CCCN(C)C(=O)C1CCN(c2cn[nH]c(=O)c2)CC1  RP-LC retention time    597
 4  Cc1cc(C2CCCN2C(=O)Cc2ccccc2F)no1 (centres undefined)  RP-LC retention time    723
 5  CCC(N)Cc1c[nH]c2ccccc12 (centres undefined)  RP-LC retention time    646
 6    Clc1ccc(Cl)c(-c2ccc(CNCCCn3ccnc3)o2)c1  RP-LC retention time    589
 7  COc1ccccc1OCCC1CCN(S(=O)(=O)Cc2ccccc2)C1 (centres undefined)  RP-LC retention time    692
 8  Cc1cc(C(F)F)n2nc(C(=O)Nc3ccc(Br)cc3)nc2n1  RP-LC retention time    891
 9  Cc1oc(C2CCN(C(=O)C3CCN(S(=O)(=O)N4CCOCC4)CC3)CC2)nc1C(=O)N1CCCC1  RP-LC retention time    677
10  O=C(NC1CCCCCC1)C1CCN(C(=O)c2ncn3c2COC(c2ccccc2)C3)CC1 (centres undefined)  RP-LC retention time    794
11  Nc1ccc(-c2nc3ccc(-c4nc5ccc(N)cc5[nH]4)cc3[nH]2)cc1  RP-LC retention time    568
12  Cc1nc(-c2noc(-c3cccnc3)n2)cn1CC(=O)N1CCc2ccccc21  RP-LC retention time    714
13  COC(=O)c1ncn2c1C(=O)N(c1cc(C)cc(C)c1)C(C)(C(=O)NCc1ccccc1)C2 (centres undefined)  RP-LC retention time    747
14  CCc1ccc(-c2noc(CN3C(=O)COc4cc(Cl)ccc43)n2)cc1  RP-LC retention time   1240
15  O=C(CC1CCN(C(=O)NCCc2ccccc2)CC1)N1CCCCC1  RP-LC retention time    759
16  Cc1cc(C(=O)Nc2ccc(Cl)cc2)n(CC(=O)Nc2ccc(F)cc2)n1  RP-LC retention time    946
17  O=C(Cc1ccc(NC(=O)c2ccc(F)c(F)c2)cc1)NC1CC1  RP-LC retention time    686
18  O=C(c1ccc(F)c(F)c1)N1CCC2(CC1)N=C(c1ccc(Cl)cc1)NO2  RP-LC retention time    920
19  COc1ccccc1C(=O)N1CCC2(CC1)NC(=O)c1cc(F)ccc1N2C  RP-LC retention time    752
20  Cc1cc(C)cc(NC(=O)N2CCCC(Cn3c(C)nc4cccnc43)C2)c1 (centres undefined)  RP-LC retention time    671
21  O=C(Cn1c2ccccc2c2ncn(Cc3nc(-c4ccccc4)no3)c(=O)c21)NC1CCCC1  RP-LC retention time    912
22  CCN1CCN(c2cc(C)c3cc(NC(=O)CC(C)C)ccc3n2)CC1  RP-LC retention time    560
23  CC(C)Oc1ccc(-c2noc(Cn3c(=O)n(C(C)C)c(=O)c4ccccc43)n2)cc1  RP-LC retention time   1140
24  COc1cc(OC)cc(-c2nc(-c3cn(Cc4ccc(C)cc4)nn3)no2)c1  RP-LC retention time   1090
25  COc1ccc(N2CCN(c3cc(SCC(=O)Nc4cc(F)ccc4C)ncn3)CC2)cc1  RP-LC retention time   1040
26  CC(C)=C1C(=O)Nc2ccc(S(=O)(=O)N3CCN(c4ccccn4)CC3)cc21  RP-LC retention time    612
27      O=C(c1ccc2ncnc(N3CCCC3)c2c1)N1CCCCC1  RP-LC retention time    577
28  Nc1nccc(Oc2ccc(NC(=O)c3c[nH]cc(-c4ccc(F)cc4)c3=O)cc2F)c1Cl  RP-LC retention time    751
29  Cc1cc(NC(=O)C(C)Oc2ccc(-c3cnc4ccccc4n3)cc2)no1 (centres undefined)  RP-LC retention time    890
30  Cc1ccc(N2CCC(C(=O)Nc3ccc4c(c3)Cc3ccccc3-4)CC2)nn1  RP-LC retention time    608
31  Cc1cc(C)n(-c2ccnc(N3CCC(C(=O)NCc4ccccc4)CC3)n2)n1  RP-LC retention time    832
32    CS(=O)(=O)N1CCC(CNC(=O)CSCc2ccccc2)CC1  RP-LC retention time    691
33  CC(C)CCNC(=O)[C@H](CC(C)C)NC(=O)[C@H]1O[C@@H]1C(=O)O  RP-LC retention time    841
34  COc1cccc(-c2nc(COc3cc(C)c4c(C)nn(C)c4n3)c(C)o2)c1OC  RP-LC retention time   1070
35  COc1ccc2c(c1)C1(CCN(S(=O)(=O)c3cc(F)ccc3C)C1)C(=O)N2 (centres undefined)  RP-LC retention time    857
36  CC1CCN(C(=O)c2cc3c(s2)CCC(C(=O)N2CCOCC2)C3)CC1 (centres undefined)  RP-LC retention time    765
37   Cc1cc2c(=O)n(CC(=O)Nc3ccc(Cl)cc3)ccc2s1  RP-LC retention time    852
38  CC(C)(C)c1csc(-c2csc(S(=O)(=O)NCc3ccc(F)c(Cl)c3)c2)n1  RP-LC retention time   1280
39  Cc1cc(-c2nnc(-c3ccccc3)o2)c(C)n1CC(=O)N1CCN(c2ccccn2)CC1  RP-LC retention time    649

# credit: the METLIN SMRT retention time set (Domingo-Almenara et al. 2019)
